Data provenance: patent US20140128380A1

- experimental.system: human MC1R (Homo sapiens)
- Sequence (Q01726 whole entry): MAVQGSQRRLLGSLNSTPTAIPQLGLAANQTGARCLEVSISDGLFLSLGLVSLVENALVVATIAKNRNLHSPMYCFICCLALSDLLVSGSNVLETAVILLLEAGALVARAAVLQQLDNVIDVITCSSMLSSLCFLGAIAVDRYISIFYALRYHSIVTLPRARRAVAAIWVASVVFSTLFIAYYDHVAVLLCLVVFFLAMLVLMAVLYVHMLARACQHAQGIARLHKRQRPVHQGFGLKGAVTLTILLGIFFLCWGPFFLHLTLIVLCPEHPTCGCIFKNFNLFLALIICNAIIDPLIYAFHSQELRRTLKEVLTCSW
- experimental.protocol: cAMP stimulation assay, agonist mode, HEK 293 cells transiently expressing MC1 receptor (Alphascreen)
- measurement.context: HEK293 cell; read-out: human MC1R agonism (cAMP EC50 HEK293 cell)
- Procedure: HEK 293 cells transiently expressing the melanocortin MC1 receptor were suspended in stimulation buffer (Hanks buffered saline solution (HBSS), 0.1% bovine serum albumin, protease inhibitors and 0.5 mM 3-Isobutyl-1-methylxanthine) at 4×10^6 cells/mL. […] Basal level (of cAMP) control wells contained stimulation buffer only (no agonist or compounds). […] After incubation, 10 μl of lysis buffer (10% Tween 20, 1 M HEPES, 0.1% BSA, protease inhibitors, ddH2O) was added to all wells to be measured. […]
Please go through the items and note down their pEC50.
Quick note: pEC50 means taking -log10 of the concentration in moles per liter.

Sample N=C(N)NCCC[C@@H]1N[C@H](CNC(=O)c2ccc(Oc3ccccc3)cc2)CCN(CC(c2ccccc2)c2ccccc2)C1=O [Compound 112] ; pEC50 observed: 4.96

Sample N=C(N)NCCC[C@@H]1N[C@H](CNC(=O)c2ccc3ccccc3c2)CCN(CC2CCCCC2)C1=O [Compound 116] ; pEC50 observed: 4.80

Sample CC(=O)N[C@@H](Cc1c[nH]cn1)C(=O)N[C@H](Cc1ccccc1)[C@@H]1CCN(CCc2c[nH]c3ccccc23)C(=O)[C@H](CCCNC(=N)N)N1 [Compound 119] ; pEC50 observed: 5.15

Sample N=C(N)NCCC[C@H]1C(=O)N(C(c2ccccc2)c2ccccc2)CC[C@H]2CN(Cc3ccc(-c4ccccc4)cc3)C(=O)N21 [Compound 110] ; pEC50 observed: 4.11
